Tested on: phosphorylation of Akt at Serine 473 in U87 MG cells
Assay: cells
Conditions: Homo sapiens, U-87 MG, 2 h, read-out: U87Cell IC50, pAkt (Ser 473), U87 MG cells, two hours with compound
IC50 values for the molecules below.
Write down the numeric answer in nM and omit the unit.

INSERT INTO results (molecule, endpoint_value) VALUES
  ('C=Cc1cnc(Nc2cnc(Cl)c(NS(C)(=O)=O)c2)c(-c2cc(N)nc(C)n2)c1', 16),
  ('COc1ccc(Nc2ncc(CN[C@H](C)CO)cc2-c2nc(C)nc(N)n2)cn1', 573),
  ('Cc1nc(N)cc(-c2nccnc2Nc2cccc3[nH]ncc23)n1', 450);

# get_value(readout='IC50', item= COc1ncc(Nc2ncc(C(C)c3ccc(S(C)(=O)=O)cc3)cc2-c2nc(C)nc(N)n2)cc1F (stereo not drawn) ) 11

###

POC (Percent of control) AKT1 values for the compounds below.
Molecular target: ProfilerPro Kinase Selectivity Assay Kit kinases (Homo sapiens)
Format: biochemical
Conditions: AKT1; 1 μM compound concentration
Write down the numeric answer in POC and omit the unit.

A selection of reference data follows.
INSERT INTO assay_data (smiles, target_of_assay, endpoint_name, endpoint_value) VALUES
  ('Cc1cnc(Nc2cccc3[nH]ncc23)c(-c2nc(C)nc(N)n2)c1', 'ProfilerPro Kinase Selectivity Assay Kit kinases (Homo sapiens)', 'POC (Percent of control) AKT1', 50),
  ('Cc1nc(N)nc(-c2cccnc2Nc2cccc(O)c2)n1', 'ProfilerPro Kinase Selectivity Assay Kit kinases (Homo sapiens)', 'POC (Percent of control) AKT1', 103),
  ('COc1ccc(Nc2ncc(CN3CCN(C(C)=O)CC3)cc2-c2nc(C)nc3[nH]cnc23)cn1', 'ProfilerPro Kinase Selectivity Assay Kit kinases (Homo sapiens)', 'POC (Percent of control) AKT1', 102);

Please find the next compound below.
# get_value(readout='POC (Percent of control) AKT1', item= "COc1ccc(Nc2ncccc2-c2nc(C)nc3[nH]cnc23)cn1" ) 106

###

Biological target: UniProt:O14965
Format: biochemical
Details: AURORA A; 1 μM compound concentration
Endpoint Name: POC (Percent of control) AURORA A
Please append the unit to your numeric answer.

A selection of reference data follows.
INSERT INTO results (compound, endpoint_name, endpoint_value) VALUES
  ('CCc1cnc(Nc2ccc(OC)nc2)c(-c2nc(C)nc3[nH]cnc23)c1 [Example 74]', 'POC (Percent of control) AURORA A', '102 POC'),
  ('Cc1nc(-c2cccnc2Nc2cccc3[nH]ncc23)c2nc[nH]c2n1 [Example 57]', 'POC (Percent of control) AURORA A', '99 POC'),
  ('Cc1nc(N)cc(-c2cccnc2Nc2cccc3[nH]ncc23)n1 [Example 27]', 'POC (Percent of control) AURORA A', '78 POC');

Please find the next compound below.
# get_value(readout='POC (Percent of control) AURORA A', item= Cc1nc(N)nc(-c2cccnc2Nc2cccc3[nH]ccc23)n1 [Example 22] ) 102 POC

###

POC (Percent of control) cMET values for the compounds below.
Target: ProfilerPro Kinase Selectivity Assay Kit kinases (Homo sapiens, UniProt P08581)
Sequence (P08581 25-1390 limits assumed): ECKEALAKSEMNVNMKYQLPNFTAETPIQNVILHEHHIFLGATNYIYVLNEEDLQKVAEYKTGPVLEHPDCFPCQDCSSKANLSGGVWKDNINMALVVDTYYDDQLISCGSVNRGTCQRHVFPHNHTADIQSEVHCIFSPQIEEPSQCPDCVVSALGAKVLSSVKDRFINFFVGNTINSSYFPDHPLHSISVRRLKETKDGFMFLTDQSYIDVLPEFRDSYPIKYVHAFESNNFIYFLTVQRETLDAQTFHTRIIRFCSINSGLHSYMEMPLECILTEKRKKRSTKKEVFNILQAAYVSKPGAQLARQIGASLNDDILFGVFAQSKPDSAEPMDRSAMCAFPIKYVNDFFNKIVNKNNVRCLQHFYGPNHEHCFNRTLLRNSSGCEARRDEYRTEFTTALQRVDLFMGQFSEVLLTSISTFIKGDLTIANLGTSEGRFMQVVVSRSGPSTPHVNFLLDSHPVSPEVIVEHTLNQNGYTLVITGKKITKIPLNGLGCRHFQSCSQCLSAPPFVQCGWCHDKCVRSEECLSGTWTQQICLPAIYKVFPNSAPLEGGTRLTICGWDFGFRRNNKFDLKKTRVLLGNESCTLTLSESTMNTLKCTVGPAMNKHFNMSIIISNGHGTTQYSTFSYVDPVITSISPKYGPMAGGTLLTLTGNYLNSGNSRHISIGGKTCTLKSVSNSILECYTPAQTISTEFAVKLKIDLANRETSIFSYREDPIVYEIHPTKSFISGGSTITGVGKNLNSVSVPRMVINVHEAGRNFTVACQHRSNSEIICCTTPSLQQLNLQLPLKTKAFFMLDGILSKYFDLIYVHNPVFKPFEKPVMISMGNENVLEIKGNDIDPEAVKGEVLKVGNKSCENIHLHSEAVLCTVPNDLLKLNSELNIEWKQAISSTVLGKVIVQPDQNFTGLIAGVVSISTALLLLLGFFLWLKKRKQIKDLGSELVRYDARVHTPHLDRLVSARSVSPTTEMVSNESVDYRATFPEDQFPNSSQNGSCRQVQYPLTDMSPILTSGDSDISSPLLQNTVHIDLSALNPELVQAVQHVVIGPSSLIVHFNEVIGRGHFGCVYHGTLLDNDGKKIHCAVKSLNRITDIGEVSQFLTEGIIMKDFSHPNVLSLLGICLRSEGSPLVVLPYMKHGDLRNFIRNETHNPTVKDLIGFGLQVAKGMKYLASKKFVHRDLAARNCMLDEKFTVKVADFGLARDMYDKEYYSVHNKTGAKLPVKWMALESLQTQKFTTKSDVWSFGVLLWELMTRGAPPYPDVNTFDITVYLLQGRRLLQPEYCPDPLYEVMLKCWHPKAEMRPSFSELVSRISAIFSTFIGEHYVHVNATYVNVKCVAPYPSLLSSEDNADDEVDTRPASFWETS
Type: biochemical
Details: cMET; 1 μM compound concentration
Please append the unit to your numeric answer.

INSERT INTO assay_data (compound, endpoint_value) VALUES
  ('COc1ccc(Nc2ncccc2-c2ncnc3[nH]cnc23)cn1 [Example 20]', '106 POC'),
  ('Cc1nc(N)nc(-c2cccnc2Nc2cccc(O)c2)n1 [Example 23]', '104 POC');

Short answer please: POC (Percent of control) cMET, ProfilerPro Kinase Selectivity Assay Kit kinases (Homo sapiens, UniProt P08581), entry Cc1nc(-c2cccnc2Nc2cccc3[nH]ncc23)c2nc[nH]c2n1 [Example 57] 100 POC
